Data origin: paper PMC9090415

The entries below are paired with their reported % inhibition Apo pol 5'.
Biological target: P. falciparum apicoplast DNA polymerase (Pf-apPOL) (Plasmodium falciparum, UniProt Q8ILY1)
Sequence (Q8ILY1 entry or part of it): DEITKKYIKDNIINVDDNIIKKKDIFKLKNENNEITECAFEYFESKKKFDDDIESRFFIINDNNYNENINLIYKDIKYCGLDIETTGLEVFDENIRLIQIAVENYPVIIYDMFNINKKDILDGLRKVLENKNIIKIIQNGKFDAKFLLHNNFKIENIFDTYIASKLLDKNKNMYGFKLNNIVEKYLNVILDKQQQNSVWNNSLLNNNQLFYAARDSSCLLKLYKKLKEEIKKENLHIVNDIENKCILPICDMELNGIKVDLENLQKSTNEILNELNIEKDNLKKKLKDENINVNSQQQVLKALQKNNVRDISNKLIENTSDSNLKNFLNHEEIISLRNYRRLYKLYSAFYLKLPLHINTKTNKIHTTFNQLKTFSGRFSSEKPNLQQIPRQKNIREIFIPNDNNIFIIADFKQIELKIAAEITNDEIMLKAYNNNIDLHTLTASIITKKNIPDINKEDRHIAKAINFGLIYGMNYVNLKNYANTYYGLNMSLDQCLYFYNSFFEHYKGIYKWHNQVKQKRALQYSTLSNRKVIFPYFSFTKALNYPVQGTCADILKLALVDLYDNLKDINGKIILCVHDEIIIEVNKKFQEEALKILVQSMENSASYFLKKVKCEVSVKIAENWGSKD
Assay: Fluorescence-based high-throughput DNA polymerase assay (molecular beacon), primary screen and dose-response
Assay type: biochemical
Details: DRC-2; concentration 80; 5'

molecule	% inhibition Apo pol 5'
CCCCCc1c2c(cc(O)c1C(=O)O)OC(=O)c1c(cc(OC)cc1C(=O)CCCC)O2	56%
COc1cc(/C=C2\C(=O)N(c3ccc(C(=O)O)cc3)N=C2C(F)(F)F)ccc1OCC(C)C	65%
CCOc1ccc2cc(C3=NN(C(=O)CCC(=O)O)C(c4ccc(C)cc4)C3)c(=O)[nH]c2c1 (stereo not shown)	55%
O=C(O)c1cc([N+](=O)[O-])c(N2CCN(c3cccc(C(F)(F)F)c3)CC2)c([N+](=O)[O-])c1	64%
CCCN1COc2ccc3c(=O)c(-c4ccccc4)coc3c2C1	51%
O=C1c2ccccc2C(=O)c2c1oc1c3c(ccc21)OCN(C1CCCC1)C3	44%
COc1ccc(-c2occ(C(=O)O)c2C(=O)O)cc1	51%

---

Biological target: P. falciparum apicoplast DNA polymerase (Pf-apPOL) (Plasmodium falciparum, UniProt Q8ILY1)
Assay: Fluorescence-based high-throughput DNA polymerase assay (molecular beacon), primary screen and dose-response;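 for % inhibition apPOL 180': test concentration in µM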
Format: biochemical
Conditions: DRC-1; 180'; concentration 40
Excerpt: The HT assay employs a molecular beacon, a stem-loop DNA template with a Cy3 dye and the Black Hole Quencher on the 3′ and 5′ ends of the DNA, respectively. Pf-apPOL concentration is based on a calculated absorptivity of ε280 = 56750 M^−1 cm^−1. […] To identify apPOL inhibitors we utilised our previously developed high-throughput DNA polymerase assay. […] The assay accurately recapitulates the kinetic behaviour of apPOL, as measured through more conventional low-throughput gel-based assays. […]
Group membership follows % inhibition apPOL 180' per the scheme lower = under 50%, middle = from 50% up to 70%, upper = 70% and over

compound	discrete label
O=C(NCC1CCN(C2CCCC2)CC1)C(=O)NC1CCCC1	upper
O=C(NC(C(Cl)Cl)S(=O)(=O)c1ccccc1)c1ccccc1 (stereo not shown)	middle
O=C(O)c1c(F)c(F)c(-c2c(F)c(F)c(C(=O)O)c(F)c2F)c(F)c1F	lower
O=C(O)C(=O)Nc1nc(-c2ccc3c(c2)OCCO3)cs1	lower
N#CC(=NNc1cc(C(F)(F)F)cc(C(F)(F)F)c1)C(=O)c1ccco1	upper
COCC(=O)Nc1c(-c2cccc(F)c2)nc2cc(C)ccn12	middle
Cc1cc(C)cc(-n2nc3c(c2NC(=O)c2ccco2)CSC3)c1	upper
CCOc1ccc(/C=C2\N=C(c3cc([N+](=O)[O-])cc([N+](=O)[O-])c3)OC2=O)cc1	upper
O=[N+]([O-])c1cc2c(cc1CN1CCN(c3cccc(Cl)c3)CC1)OCO2	middle
O=C(O)CC1SC(c2ccc3c(c2)OCO3)=NC1=O (stereo not shown)	lower
O=C(O)CCS(=O)(=O)c1ccc(-c2ccc(S(=O)(=O)CCC(=O)O)cc2)cc1	middle
NS(=O)(=O)c1ccc(NC(=O)c2ccc(N3C(=O)CCC3=O)cc2)cc1	middle
COc1ccc(-c2cc3nc4c(c(=O)n3[nH]2)CCN(C(=O)CCc2ccccc2)C4)cc1	middle
CN1CC(=Cc2ccco2)C(=O)C(=Cc2ccco2)C1	lower
CCCCOC(=O)CCCCCN1C(=O)C(=Cc2ccc(OC)cc2)SC1=S	lower

---

Biological target: bacteriophage T4 DNA polymerase (Enterobacteria phage T4, UniProt P04415)
Construct: made in house
Sequence (P04415 1-898): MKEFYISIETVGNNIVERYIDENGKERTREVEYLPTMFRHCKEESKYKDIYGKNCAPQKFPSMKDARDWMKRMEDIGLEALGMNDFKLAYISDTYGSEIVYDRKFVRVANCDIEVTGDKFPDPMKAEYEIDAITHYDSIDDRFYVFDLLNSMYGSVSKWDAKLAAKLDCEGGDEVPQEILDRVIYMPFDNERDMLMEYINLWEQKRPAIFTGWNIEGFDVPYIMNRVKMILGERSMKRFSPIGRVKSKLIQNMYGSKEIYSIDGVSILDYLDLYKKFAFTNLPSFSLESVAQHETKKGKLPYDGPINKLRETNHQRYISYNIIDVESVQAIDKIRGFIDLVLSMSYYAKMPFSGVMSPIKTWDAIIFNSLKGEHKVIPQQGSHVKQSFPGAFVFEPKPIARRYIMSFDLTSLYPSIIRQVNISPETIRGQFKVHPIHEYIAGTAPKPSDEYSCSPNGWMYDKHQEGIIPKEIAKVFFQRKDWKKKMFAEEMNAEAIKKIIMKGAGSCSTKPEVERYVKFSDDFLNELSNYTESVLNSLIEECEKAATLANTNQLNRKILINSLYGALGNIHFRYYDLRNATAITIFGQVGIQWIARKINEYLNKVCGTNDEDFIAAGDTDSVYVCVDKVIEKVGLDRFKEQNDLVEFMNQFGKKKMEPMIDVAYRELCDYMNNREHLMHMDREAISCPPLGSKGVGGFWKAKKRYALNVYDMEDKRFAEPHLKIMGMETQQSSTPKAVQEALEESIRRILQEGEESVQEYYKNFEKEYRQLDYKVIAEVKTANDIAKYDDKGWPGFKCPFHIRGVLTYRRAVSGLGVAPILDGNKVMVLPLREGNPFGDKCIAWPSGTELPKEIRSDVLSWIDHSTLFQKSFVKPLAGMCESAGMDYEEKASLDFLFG
Assay: Counter-screen against bacteriophage T4 DNA polymerase
Type: biochemical
Details: DRC-2; 10'; concentration 20
% inhibition T4 10' below 30% gives Not met; % inhibition T4 10' at or above it gives Met.

compound	subject of test	discrete label
COc1ccc(-c2cc3nc4c(c(=O)n3[nH]2)CCN(C(=O)CCc2ccccc2)C4)cc1 [Molecule 17]	bacteriophage T4 DNA polymerase (Enterobacteria phage T4, UniProt P04415)	Not met
O=C(c1c[nH]c2ncccc12)N1CCCC1 [Molecule 63, O=C(c1c[nH]c2c1cccn2)N1CCCC1]	bacteriophage T4 DNA polymerase (Enterobacteria phage T4, UniProt P04415)	Not met
CCCCC(=O)N1CCc2c(nc3cc(-c4ccccc4Cl)[nH]n3c2=O)C1 [Molecule 37]	bacteriophage T4 DNA polymerase (Enterobacteria phage T4, UniProt P04415)	Not met
N#CC(=NNc1cc(C(F)(F)F)cc(C(F)(F)F)c1)C(=O)c1ccco1 [KU0264276]	bacteriophage T4 DNA polymerase (Enterobacteria phage T4, UniProt P04415)	Not met
O=c1[nH]c2ccc([N+](=O)[O-])cc2c(-c2ccccc2)c1Sc1nc2ccccc2o1 [KU0067471]	bacteriophage T4 DNA polymerase (Enterobacteria phage T4, UniProt P04415)	Met
CC(NC(=O)Cc1cc(=O)[nH]c(SCc2cccc(Cl)c2)n1)c1ccccc1 (stereo not shown) [Molecule 67]	bacteriophage T4 DNA polymerase (Enterobacteria phage T4, UniProt P04415)	Not met
Cc1ccccc1C(=O)N1CCc2c(nc3cc(-c4ccccc4)[nH]n3c2=O)C1 [Molecule 41]	bacteriophage T4 DNA polymerase (Enterobacteria phage T4, UniProt P04415)	Not met
CCOC(=O)C1=C2c3cc(OC)c(OC)cc3CC(C)(C)N2C(=O)C1=O [KU0193659]	bacteriophage T4 DNA polymerase (Enterobacteria phage T4, UniProt P04415)	Not met
COc1ccc(CNC(=O)Cn2nc3c(c2NC(=O)Cc2cccs2)CSC3)cc1 [Molecule 55]	bacteriophage T4 DNA polymerase (Enterobacteria phage T4, UniProt P04415)	Not met
Cc1ccc(C)n1-c1ccc(C(=O)NNC(=O)c2ccc3nccnc3c2)cc1 [Molecule 53]	bacteriophage T4 DNA polymerase (Enterobacteria phage T4, UniProt P04415)	Met

---

Molecular target: bacteriophage T4 DNA polymerase (Enterobacteria phage T4, UniProt P04415)
Construct: made in house
Sequence (P04415 1-898): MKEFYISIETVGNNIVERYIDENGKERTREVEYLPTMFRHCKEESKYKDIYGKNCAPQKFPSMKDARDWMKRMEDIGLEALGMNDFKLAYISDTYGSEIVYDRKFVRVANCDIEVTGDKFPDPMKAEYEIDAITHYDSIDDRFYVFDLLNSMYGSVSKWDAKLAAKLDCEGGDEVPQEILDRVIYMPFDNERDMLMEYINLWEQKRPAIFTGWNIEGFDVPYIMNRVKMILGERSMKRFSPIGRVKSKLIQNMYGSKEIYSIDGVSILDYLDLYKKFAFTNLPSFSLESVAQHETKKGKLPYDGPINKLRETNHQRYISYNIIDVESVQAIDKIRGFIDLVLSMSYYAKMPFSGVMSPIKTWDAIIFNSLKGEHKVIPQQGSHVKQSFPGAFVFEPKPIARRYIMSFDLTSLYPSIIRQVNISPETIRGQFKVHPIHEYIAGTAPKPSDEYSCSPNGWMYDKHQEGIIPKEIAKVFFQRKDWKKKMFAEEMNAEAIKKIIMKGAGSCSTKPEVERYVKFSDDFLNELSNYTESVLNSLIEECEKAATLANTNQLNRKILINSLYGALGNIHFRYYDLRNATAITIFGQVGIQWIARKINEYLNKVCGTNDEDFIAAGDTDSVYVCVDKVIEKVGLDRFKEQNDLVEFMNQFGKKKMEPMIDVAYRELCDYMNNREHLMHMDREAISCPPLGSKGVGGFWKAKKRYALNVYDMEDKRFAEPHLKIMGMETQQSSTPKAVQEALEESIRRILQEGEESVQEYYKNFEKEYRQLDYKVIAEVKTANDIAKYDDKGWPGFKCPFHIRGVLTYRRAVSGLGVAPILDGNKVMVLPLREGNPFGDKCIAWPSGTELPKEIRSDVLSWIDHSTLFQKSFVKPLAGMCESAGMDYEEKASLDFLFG
Experiment: Counter-screen against bacteriophage T4 DNA polymerase
Assay type: biochemical
Conditions: DRC-2; read at 180'; concentration 10
The entries below are paired with their reported % inhibition T4 180' 10.

compound	% inhibition T4 180' 10, %
Cc1cc2[nH]c(C(=O)Nc3ccc(F)cc3)c(CN3CCOCC3)c2s1	6
O=C1CSC2=NC3=C(CCc4ccccc43)C(c3cccs3)N12 (stereo not shown)	5
CC(C)CC(C(=O)O)N1C(=O)C2C3C=CC(C2C1=O)C1C(=O)N(C(CC(C)C)C(=O)O)C(=O)C31 (stereo not shown)	0.586
Nc1cc(Oc2ccc(O)c(N)c2)ccc1O	-8
